Listed here: items and their measured % GSH depletion (2 h) Tyrosinase/O2.
Tested on: Mushroom tyrosinase
procedure details: Tyrosinase mediated GSH depletion assay
Format: biochemical
experimental setup: 2 h incubation
observed property: % GSH depletion (2 h) Tyrosinase/O2

molecule	target desc	recorded measurement
OCc1ccccc1 [Benzyl alcohol, benzyl alcohol, reference compound]	Mushroom tyrosinase	0%
COc1ccccc1O [2-hydroxyanisole]	Mushroom tyrosinase	25±2%
COc1cccc(O)c1 [3-hydroxyanisole]	Mushroom tyrosinase	24±3%
O=C(O)c1ccccc1O [2-hydroxybenzoic acid]	Mushroom tyrosinase	0%
CCOC(=O)c1ccccc1 [Ethyl benzoate, ethyl benzoate, reference compound]	Mushroom tyrosinase	26±3%
CCOC(=O)c1ccc(O)cc1 [Ethyl 4-hydroxybenzoate, ethyl 4-hydroxybenzoate]	Mushroom tyrosinase	24±4%
CCOC(=O)c1ccccc1O [Ethyl 2-hydroxybenzoate, ethyl 2-hydroxybenzoate]	Mushroom tyrosinase	22±2%
CC(=O)c1ccccc1 [Acetophenone, acetophenone, reference compound]	Mushroom tyrosinase	44±3%
OCc1ccccc1O [2-hydroxybenzyl alcohol]	Mushroom tyrosinase	0%
COc1ccccc1 [Anisole, anisole, reference compound]	Mushroom tyrosinase	21±3%
O=C(O)c1ccc(O)cc1 [4-hydroxybenzoic acid]	Mushroom tyrosinase	30±5%
O=C(O)c1ccccc1 [Benzoic acid, benzoic acid, reference compound]	Mushroom tyrosinase	12±2%
OCc1cccc(O)c1 [3-hydroxybenzyl alcohol]	Mushroom tyrosinase	29±3%
